Molecular target: Histone deacetylase 8 (Homo sapiens, UniProt Q9BY41)
Sequence (Q9BY41 whole entry): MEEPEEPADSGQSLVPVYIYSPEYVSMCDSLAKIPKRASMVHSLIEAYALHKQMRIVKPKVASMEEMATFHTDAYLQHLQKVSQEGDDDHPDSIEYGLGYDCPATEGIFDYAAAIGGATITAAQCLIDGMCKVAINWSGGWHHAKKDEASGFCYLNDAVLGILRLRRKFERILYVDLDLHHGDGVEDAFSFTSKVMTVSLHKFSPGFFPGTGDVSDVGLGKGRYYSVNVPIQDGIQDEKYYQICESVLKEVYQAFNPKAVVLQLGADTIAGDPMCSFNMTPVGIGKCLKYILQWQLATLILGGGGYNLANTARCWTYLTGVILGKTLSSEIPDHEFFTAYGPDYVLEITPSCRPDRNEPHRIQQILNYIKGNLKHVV
Test: Inhibition of recombinant human full length C-terminal His-tagged HDAC8 expressed in baculovirus infected Sf9 insect cells after 30 mins by fluorescence assay
parameter-measured: IC50 (µM)

[P] CC(C)CCN(CCCCCCC(=O)NO)c1ncc(C(=O)NCCCn2ccnc2)s1
[Q] O=C(CCCCCCN(Cc1ccc(F)cc1)c1ncc(C(=O)NCCCn2ccnc2)s1)NO
Q. IC50 comparison. Which is larger, P or Q ? Returns: label corresponding to the selected item.
A. Q
(Q: 0.351 µM, P: 0.204 µM)

----------
Molecular target: UniProt Q9UBN7
Test: Inhibition of recombinant human full length C-terminal flag-tagged HDAC6 expressed in baculovirus infected Sf9 insect cells after 30 mins by fluorescence assay
parameter-measured: IC50 (nM)

[A] O=C(CCCCCCN(Cc1ccc(F)cc1)c1ncc(C(=O)NCCCn2ccnc2)s1)NO
[B] CC(C)CCN(CCCCCCC(=O)NO)c1ncc(C(=O)NCCCn2ccnc2)s1
Q. IC50 comparison. Which is larger, A or B ? Returns: label corresponding to the selected item.
A. A
(A: 6.2 nM, B: 0.64 nM)

----------
Molecular target: UniProtKB Q13547
Sequence (Q13547 whole entry): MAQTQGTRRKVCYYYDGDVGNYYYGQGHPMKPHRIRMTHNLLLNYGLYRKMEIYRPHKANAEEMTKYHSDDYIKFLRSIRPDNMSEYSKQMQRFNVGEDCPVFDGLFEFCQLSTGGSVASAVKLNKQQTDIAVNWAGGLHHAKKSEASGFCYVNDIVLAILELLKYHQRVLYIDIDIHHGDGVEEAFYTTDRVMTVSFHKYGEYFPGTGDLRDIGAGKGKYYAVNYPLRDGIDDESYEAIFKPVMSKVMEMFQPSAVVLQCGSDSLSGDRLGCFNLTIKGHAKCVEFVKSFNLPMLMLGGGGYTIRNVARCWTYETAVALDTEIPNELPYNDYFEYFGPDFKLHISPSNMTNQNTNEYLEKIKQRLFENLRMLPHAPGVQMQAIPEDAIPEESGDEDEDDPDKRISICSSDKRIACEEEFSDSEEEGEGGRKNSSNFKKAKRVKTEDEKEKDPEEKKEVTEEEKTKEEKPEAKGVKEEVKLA
Assay: Inhibition of recombinant full length human C-terminal His/flag-tagged HDAC1 expressed in baculovirus infected Sf9 insect cells after 30 mins by fluorescence assay
pIC50: −log10 of the molar value.
parameter-measured: pIC50

Below are worked cases with known answers.
[
  {
    "chemical-structure": "O=C(CCCCCN(Cc1ccc(F)cc1)c1ncc(C(=O)NCCCn2ccnc2)s1)NO",
    "pIC50": 7.00
  },
  {
    "chemical-structure": "O=C(NO)c1ccc(CN(Cc2ccc(F)cc2)c2ncc(C(=O)NCCCn3ccnc3)s2)cc1",
    "pIC50": 7.34
  },
  {
    "chemical-structure": "CC(C)CCN(CCCCCCC(=O)NO)c1ncc(C(=O)NCc2cccnc2)s1",
    "pIC50": 7.44
  },
  {
    "chemical-structure": "CC(C)CCN(CCCCCC(=O)NO)c1ncc(C(=O)NCCCn2ccnc2)s1",
    "pIC50": 7.22
  },
  {
    "chemical-structure": "O=C(CCCCCCN(Cc1ccc(F)cc1)c1ncc(C(=O)NCc2cccnc2)s1)NO",
    "pIC50": 7.02
  }
]

[P] O=C(CCCCCCCN(Cc1ccc(F)cc1)c1ncc(C(=O)NCCCn2ccnc2)s1)NO
[Q] O=C(/C=C/c1ccc(CN(Cc2ccc(F)cc2)c2ncc(C(=O)NCCCn3ccnc3)s2)cc1)NO
[R] CC(C)CCN(CCCCCCC(=O)NO)c1ncc(C(=O)NCCCn2ccnc2)s1
Q. Endpoint returns the given molecules ordered by ascending pIC50. Please respond by ranking the labels in the order requested.
A. Q, P, R
(Q: 7.04, P: 7.36, R: 8.70)

----------
As a worked illustration, we turn to pIC50 data collected for UniProt Q92769.
Sequence (Q92769 whole entry): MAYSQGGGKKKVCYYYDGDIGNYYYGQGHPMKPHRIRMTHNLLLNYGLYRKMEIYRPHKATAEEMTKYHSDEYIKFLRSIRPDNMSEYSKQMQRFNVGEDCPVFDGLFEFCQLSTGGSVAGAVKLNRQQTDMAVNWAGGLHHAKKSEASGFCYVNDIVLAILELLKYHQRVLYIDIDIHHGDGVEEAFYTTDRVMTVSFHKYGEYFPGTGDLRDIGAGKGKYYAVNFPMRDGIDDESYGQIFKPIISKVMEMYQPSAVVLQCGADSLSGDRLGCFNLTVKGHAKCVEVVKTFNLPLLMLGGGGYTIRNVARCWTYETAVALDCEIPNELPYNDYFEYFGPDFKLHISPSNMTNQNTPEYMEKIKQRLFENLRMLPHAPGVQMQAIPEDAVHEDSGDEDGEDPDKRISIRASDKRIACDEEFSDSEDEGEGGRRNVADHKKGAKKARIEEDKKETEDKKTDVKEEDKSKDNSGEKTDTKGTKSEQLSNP
pIC50: −log10 of the molar value.
parameter-measured: pIC50

[1] O=C(CCCCCCN(Cc1ccc(F)cc1)c1ncc(C(=O)NCCCn2ccnc2)s1)NO
[2] CC(C)CCN(CCCCCCC(=O)NO)c1ncc(C(=O)NCCCn2ccnc2)s1
Q. Pick one: 1 or 2 . Which one has the lower reported pIC50? Returns: label corresponding to the selected item.
A. 1

----------
Molecular target: Histone deacetylase 4 (Homo sapiens, UniProt P56524)
Test: Inhibition of recombinant human N-terminal GST-tagged HDAC4 (612 to end residues) expressed in baculovirus infected Sf9 insect cells after 30 mins by fluorescence assay
parameter-measured: IC50 (µM)

[P] CC(C)CCN(CCCCCCC(=O)NO)c1ncc(C(=O)NCCCn2ccnc2)s1
[Q] O=C(CCCCCCN(Cc1ccc(F)cc1)c1ncc(C(=O)NCCCn2ccnc2)s1)NO
Q. Pick one: P or Q . Which one has the lower reported IC50? Returns: label corresponding to the selected item.
A. P
(P: 12 µM, Q: 21 µM)

----------
Biological target: Histone deacetylase 3/NCoR1 (Homo sapiens, UniProt O15379)
Sequence (O15379 whole entry, the tested form may be a part): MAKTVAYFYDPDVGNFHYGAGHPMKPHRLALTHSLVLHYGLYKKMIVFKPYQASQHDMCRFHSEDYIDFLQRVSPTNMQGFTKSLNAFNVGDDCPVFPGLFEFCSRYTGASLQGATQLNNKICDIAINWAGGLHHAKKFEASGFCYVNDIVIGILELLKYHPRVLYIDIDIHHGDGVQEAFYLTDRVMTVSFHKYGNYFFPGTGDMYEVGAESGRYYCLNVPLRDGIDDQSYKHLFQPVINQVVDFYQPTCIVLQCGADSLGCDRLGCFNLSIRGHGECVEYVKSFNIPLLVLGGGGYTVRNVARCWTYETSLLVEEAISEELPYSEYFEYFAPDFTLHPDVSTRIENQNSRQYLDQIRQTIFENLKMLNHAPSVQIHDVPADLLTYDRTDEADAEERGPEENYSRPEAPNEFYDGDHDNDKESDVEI
Sequence (O75376 whole entry, further chain, the tested form may be a part): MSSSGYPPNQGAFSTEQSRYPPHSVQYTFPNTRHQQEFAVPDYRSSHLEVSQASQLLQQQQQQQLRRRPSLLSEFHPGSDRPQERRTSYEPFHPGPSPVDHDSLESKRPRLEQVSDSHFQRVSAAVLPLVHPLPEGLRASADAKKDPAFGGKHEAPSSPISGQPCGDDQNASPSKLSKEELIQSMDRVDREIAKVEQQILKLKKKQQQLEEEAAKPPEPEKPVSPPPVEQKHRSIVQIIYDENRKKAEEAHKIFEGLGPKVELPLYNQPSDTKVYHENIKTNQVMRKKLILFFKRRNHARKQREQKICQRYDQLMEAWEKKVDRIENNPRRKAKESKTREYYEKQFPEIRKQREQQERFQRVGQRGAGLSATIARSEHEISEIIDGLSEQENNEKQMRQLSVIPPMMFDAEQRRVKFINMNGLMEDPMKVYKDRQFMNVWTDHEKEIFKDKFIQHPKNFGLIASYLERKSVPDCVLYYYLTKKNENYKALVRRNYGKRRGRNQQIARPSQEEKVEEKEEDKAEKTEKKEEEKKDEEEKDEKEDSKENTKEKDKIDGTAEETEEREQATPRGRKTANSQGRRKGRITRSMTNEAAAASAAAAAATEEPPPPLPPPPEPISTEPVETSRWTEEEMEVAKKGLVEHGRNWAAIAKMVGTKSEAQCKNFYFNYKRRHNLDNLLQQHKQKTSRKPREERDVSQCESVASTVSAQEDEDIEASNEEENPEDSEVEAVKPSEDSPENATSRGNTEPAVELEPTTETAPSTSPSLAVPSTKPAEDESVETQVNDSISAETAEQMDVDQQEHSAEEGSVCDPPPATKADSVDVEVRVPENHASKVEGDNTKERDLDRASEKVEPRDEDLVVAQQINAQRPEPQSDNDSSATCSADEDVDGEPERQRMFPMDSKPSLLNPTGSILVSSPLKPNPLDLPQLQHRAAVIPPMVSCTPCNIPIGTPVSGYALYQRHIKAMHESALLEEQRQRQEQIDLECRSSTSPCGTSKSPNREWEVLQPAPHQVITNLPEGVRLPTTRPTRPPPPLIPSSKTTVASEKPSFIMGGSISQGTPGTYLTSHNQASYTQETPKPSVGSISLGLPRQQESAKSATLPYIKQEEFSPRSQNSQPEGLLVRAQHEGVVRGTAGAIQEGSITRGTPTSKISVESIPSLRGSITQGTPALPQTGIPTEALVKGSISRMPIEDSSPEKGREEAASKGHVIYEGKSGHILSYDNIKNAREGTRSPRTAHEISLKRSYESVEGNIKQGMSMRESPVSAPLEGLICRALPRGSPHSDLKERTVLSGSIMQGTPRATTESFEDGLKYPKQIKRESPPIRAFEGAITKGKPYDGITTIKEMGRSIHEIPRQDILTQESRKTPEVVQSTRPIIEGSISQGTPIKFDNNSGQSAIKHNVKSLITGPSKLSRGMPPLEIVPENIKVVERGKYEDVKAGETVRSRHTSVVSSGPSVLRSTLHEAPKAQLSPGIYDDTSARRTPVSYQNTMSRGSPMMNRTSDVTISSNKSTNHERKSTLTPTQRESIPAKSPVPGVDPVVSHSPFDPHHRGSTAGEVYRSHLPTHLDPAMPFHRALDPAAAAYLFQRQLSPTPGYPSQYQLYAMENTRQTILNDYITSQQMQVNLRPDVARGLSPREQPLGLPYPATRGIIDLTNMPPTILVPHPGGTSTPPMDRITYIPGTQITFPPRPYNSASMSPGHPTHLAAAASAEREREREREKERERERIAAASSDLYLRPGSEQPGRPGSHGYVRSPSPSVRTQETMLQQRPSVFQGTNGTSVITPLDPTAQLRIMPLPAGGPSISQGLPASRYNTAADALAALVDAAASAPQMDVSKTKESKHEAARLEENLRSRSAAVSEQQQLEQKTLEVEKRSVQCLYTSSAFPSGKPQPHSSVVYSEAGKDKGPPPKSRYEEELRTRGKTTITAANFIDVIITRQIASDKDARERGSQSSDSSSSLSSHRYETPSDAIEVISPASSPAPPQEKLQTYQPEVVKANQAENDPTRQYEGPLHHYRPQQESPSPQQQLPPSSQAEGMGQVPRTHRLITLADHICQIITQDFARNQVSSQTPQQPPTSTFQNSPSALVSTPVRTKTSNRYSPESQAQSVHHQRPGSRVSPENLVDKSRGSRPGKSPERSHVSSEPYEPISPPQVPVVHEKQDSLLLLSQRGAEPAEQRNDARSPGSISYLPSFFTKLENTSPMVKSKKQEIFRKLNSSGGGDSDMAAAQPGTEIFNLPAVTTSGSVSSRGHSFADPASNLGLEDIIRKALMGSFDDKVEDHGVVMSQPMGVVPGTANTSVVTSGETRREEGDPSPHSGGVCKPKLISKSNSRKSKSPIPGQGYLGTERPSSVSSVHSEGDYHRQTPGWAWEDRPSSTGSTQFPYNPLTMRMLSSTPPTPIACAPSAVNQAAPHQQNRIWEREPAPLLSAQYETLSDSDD
Experiment: Inhibition of human recombinant HDAC3/GST-tagged NCOR1 DAD (397 to 503 residues) expressed in baculovirus expression system after 30 mins by fluorescence assay
pIC50: −log10 of the molar value.
parameter-measured: pIC50

[A] O=C(CCCCCCN(Cc1ccc(F)cc1)c1ncc(C(=O)NCCCn2ccnc2)s1)NO
[B] CC(C)CCN(CCCCCCC(=O)NO)c1ncc(C(=O)NCCCn2ccnc2)s1
Q. pIC50 comparison. Which is larger, A or B ? Returns: label corresponding to the selected item.
A. B
